A collection of compounds and their measured TGI
# Test system: BT-549 breast
# TEST_PROTOCOL: NCI tumour cell line growth inhibition, 48 h
ATTRIBUTE_MEASURED: TGI (µM)

# COMPOUND, ATTRIBUTE_MEASURED, CENSOR_SYMBOL, OBSERVED_VALUE
rows = [
    ("COc1cc2c(-c3nc4cc(Cl)c(F)cc4s3)cc(=O)oc2c(C)c1OC", "TGI", "=", 1.82),
    ("COC(=O)[C@]1(C)CCCn2c(=O)n(-c3ccccc3)c(=O)n21", "TGI", ">", 100),
    ("Oc1ccc(-c2cc(-c3c(O)cc(O)cc3O)on2)cc1", "TGI", ">", 100),
    ("CC(C)(C)C1CCC2c3c([nH]c4ccccc34)C3C(=O)N(c4cc(Br)cc(Br)c4)C(=O)C3C2C1 (configuration not stated)", "TGI", ">", 100),
    ("CC1=CC[C@@H]2[C@@H](CC[C@@]2(C)O)C(C)(C)[C@H]1CC[C@@H]1[C@@]2(C)CCC(=O)C(C)(C)O[C@@H]2CC[C@]1(C)O", "TGI", "=", 57.8),
    ("CCOc1ncn(-c2ccc(NC(=S)Nc3cccc(O)c3)cc2)n1", "TGI", ">", 100),
    ("COc1c(C2(c3ccc(F)cc3)SCCCS2)c(=O)c1=O", "TGI", ">", 100),
    ("COC1=CC(c2ccc[nH]2)=N/C1=C\\c1[nH]c(C)c(C(=O)CCC(=O)Oc2ccc3c(c2)CCC2C3CC[C@]3(C)C(=O)CC[C@@H]23)c1C (some centres not stated)", "TGI", ">", 100),
    ("COc1ccc(-c2nc(-c3nc4ccc(F)cc4[nH]3)cc3c2[nH]c2ccccc23)cc1", "TGI", "=", 9.72),
    ("CCOC(=O)C1(Cc2ccc(C)cc2)Cc2ccc(C)cc2C1=O (configuration not stated)", "TGI", "=", 80.8),
    ("O=C(CCSC(CC(=O)c1ccc(Cl)cc1)c1ccc(Cl)cc1)Nc1ccc(Cl)cc1 (configuration not stated)", "TGI", "=", 27.1),
    ("C=C(NC(=O)C(=C)NC(=O)c1csc(C2=NC3c4csc(n4)C4NC(=O)c5csc(n5)C(C(C)(O)C(C)O)NC(=O)C5CSC(=N5)/C(=C/C)NC(=O)C(C(C)O)NC(=O)c5csc(n5)C3(CC2)NC(=O)C(C)NC(=O)C(=C)NC(=O)C(=C)NC(=O)C(C(C)C)NC2C=Cc3c(C(C)O)cc(nc3C2O)C(=O)OC4C)n1)C(N)=O (configuration not stated)", "TGI", "=", 7.88),
    ("Cc1cc(Br)c(N2C3=C(CC4=C2CCCC4=O)C(=O)CCC3)c(Br)c1", "TGI", ">", 100),
    ("Fc1cccc(F)c1C1SCC2=Nc3ccccc3CN21 (configuration not stated)", "TGI", ">", 100),
    ("O=C1Nc2ccccc2C(=O)OC(Cc2ccccc2)=Nc2ccccc21", "TGI", ">", 100),
    ("COc1ccc(OC)c(/C=C/[N+](=O)[O-])c1", "TGI", "=", 11.9),
    ("COc1ccc(/C=C2/CN(C(=O)c3ccccc3F)C/C(=C\\c3ccc(OC)cc3)C2=O)cc1", "TGI", "=", 4.32),
    ("COc1ccc(-c2nc3ncccn3c2-c2ccc(S(C)=O)cc2)cc1 (configuration not stated)", "TGI", ">", 100),
    ("O=C1C=C(SCCO)C(=O)c2ccccc21", "TGI", "=", 2.98),
    ("Cc1c2c(n3c(nc4ccccc43)c1C#N)N(c1ccc(Cl)cc1)CC2", "TGI", ">", 100),
    ("COc1ccc(-n2sc3ncc(-c4ccccc4)cc3c2=O)cc1", "TGI", ">", 100),
    ("C/C(=N\\Nc1nc2cc(C)ccc2s1)c1ccccn1", "TGI", ">", 69.1),
    ("NCCC1(N)CCNCC1", "TGI", ">", 100),
    ("CN(C(=O)c1ccc(F)cc1C(F)(F)F)C1CCN(c2nnc(-c3ccnn3C)c3ccccc23)CC1", "TGI", ">", 100),
    ("CC(C)CN1CN(c2ccccc2)C2(CCN(CC(C)(c3ccc(F)cc3)C3OCCO3)CC2)C1=O (configuration not stated)", "TGI", "=", 20.9),
    ("COc1ccc(-c2cc3c4c(nc5ccccc5c4c2)CC(c2cc(OC)c(OC)c(OC)c2)O3)cc1 (configuration not stated)", "TGI", "=", 31.7),
    ("Cc1c(Cl)cccc1NC(=O)CC1Sc2ccccc2NC1=O (configuration not stated)", "TGI", ">", 100),
    ("COc1ccc2c(c1)C(=O)c1c-2c(NCCCN(C)C)nc2ccccc12", "TGI", "=", 62.3),
    ("COc1ccccc1-c1cc2c3c(nc4ccccc42)C(=O)c2cccnc2-c3n1", "TGI", "=", 18.1),
    ("COC1/C=C\\C=C(/C)C(=O)NC2=CC(=O)C(NCCCl)=C(CC(C)CC(OC)C(O)C(C)/C=C(/C)C1OC(N)=O)C2=O (configuration not stated)", "TGI", "=", 2.85),
    ("CCC1(O)C=CC(=O)C=C1", "TGI", ">", 100),
    ("COc1ccc2c(c1)Oc1nc(N)c(C#N)c(N)c1C2Sc1ccc(SC)cc1 (configuration not stated)", "TGI", "=", 3),
    ("CN(CCNC(=O)c1[nH]nc2c1ccc1ccccc12)CCNC(=O)c1[nH]nc2c1ccc1ccccc12", "TGI", "=", 53.2),
    ("CCCOC(=O)N[C@H]1CCc2c(Br)c(OC)c(OC)c(OC)c2-c2ccc(SC)c(=O)cc21", "TGI", "=", 6.39),
    ("CC[C@@H](C)[C@@H]1NC(=O)C(NC(=O)C(CC(C)C)N(C)C(=O)C2CCCN2C(=O)C(C)O)C(C)OC(=O)C(Cc2ccc(OC)cc2)N(C)C(=O)C2CCCN2C(=O)C(CC(C)C)NC(=O)C(C)C(=O)C(C(C)C)OC(=O)C[C@H]1O (some centres not stated)", "TGI", "=", 0.0967),
    ("CCOC(=O)C(NCc1ccccc1)(NC(=O)c1ccccc1)C(F)(F)F (configuration not stated)", "TGI", ">", 100),
    ("O=C1OCC(c2ccc(O)c(O)c2)=C1c1cc(O)c(O)c(O)c1", "TGI", ">", 100),
]
